# assay.system: T1, human CD4 on the surface of SKW3 cells or human PBMCs (human, UniProt P01730 26-458)
# T1 construct: whole, on cells; SKW3 CD4 knockout cells served as the negative cell line; also called hCD4; SKW3 WT
# assay.info: FACS binning on SKW3 cells; competitor OKT4-Alexa Fluor 488 (its signal read); background 2163, max binding 8200
What OKT4 A488 signal was measured for each of the following?
One number for each entry.

Solved cases below.
75110_04B08A (antibody, V domains shown, Tested here as non-clonal hybridoma supernatant from AlivaMab Mouse Kappa mice (detected with anti-mouse Fc and anti-human kappa)) VH: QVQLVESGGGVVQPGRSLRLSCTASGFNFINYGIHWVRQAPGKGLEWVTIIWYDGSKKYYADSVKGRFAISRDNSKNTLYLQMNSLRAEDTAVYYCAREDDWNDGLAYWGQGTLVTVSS VL: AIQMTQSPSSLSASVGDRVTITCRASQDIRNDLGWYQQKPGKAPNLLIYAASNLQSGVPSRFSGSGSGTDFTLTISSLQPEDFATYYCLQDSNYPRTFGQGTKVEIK
3170
75110_03L12A (antibody, V domains shown, Tested here as non-clonal hybridoma supernatant from AlivaMab Mouse Kappa mice (detected with anti-mouse Fc and anti-human kappa)) VH: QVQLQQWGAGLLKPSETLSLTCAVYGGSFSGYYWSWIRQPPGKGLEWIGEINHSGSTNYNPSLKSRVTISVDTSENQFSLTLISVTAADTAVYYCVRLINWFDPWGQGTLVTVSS VL: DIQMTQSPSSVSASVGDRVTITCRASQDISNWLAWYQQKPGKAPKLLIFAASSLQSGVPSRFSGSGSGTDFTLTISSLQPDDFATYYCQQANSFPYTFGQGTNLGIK
9750
75110_04K10A (antibody, V domains shown, Tested here as non-clonal hybridoma supernatant from AlivaMab Mouse Kappa mice (detected with anti-mouse Fc and anti-human kappa)) VH: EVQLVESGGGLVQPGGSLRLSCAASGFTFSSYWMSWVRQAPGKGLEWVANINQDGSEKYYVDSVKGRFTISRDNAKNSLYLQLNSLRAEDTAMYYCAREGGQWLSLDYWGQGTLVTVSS VL: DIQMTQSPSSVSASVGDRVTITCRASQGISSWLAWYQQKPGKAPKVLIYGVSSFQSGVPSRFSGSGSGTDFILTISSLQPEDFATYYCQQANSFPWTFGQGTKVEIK
2760
75110_09G15A (antibody, V domains shown, Tested here as non-clonal hybridoma supernatant from AlivaMab Mouse Kappa mice (detected with anti-mouse Fc and anti-human kappa)) VH: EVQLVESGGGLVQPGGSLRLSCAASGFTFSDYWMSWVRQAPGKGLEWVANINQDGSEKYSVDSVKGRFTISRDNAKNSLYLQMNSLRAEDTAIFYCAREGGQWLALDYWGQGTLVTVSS VL: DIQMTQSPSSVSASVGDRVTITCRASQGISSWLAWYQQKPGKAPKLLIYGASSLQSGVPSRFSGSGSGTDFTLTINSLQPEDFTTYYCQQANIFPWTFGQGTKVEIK
2990

Query: // query OKT4 A488 signal value for entry 75110_12H19A (antibody, V domains shown, Tested here as non-clonal hybridoma supernatant from AlivaMab Mouse Kappa mice (detected with anti-mouse Fc and anti-human kappa)) VH: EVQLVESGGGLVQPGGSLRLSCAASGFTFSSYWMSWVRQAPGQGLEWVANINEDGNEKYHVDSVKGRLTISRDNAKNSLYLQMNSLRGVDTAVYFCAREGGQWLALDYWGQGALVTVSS VL: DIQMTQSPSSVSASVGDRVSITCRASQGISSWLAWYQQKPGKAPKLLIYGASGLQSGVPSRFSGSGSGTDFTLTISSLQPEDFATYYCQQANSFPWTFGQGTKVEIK
Result: 2620
